# IC50 measurements, system: human 11β-HSD1 (Homo sapiens, UniProt P28845)
# Sequence (P28845 whole entry): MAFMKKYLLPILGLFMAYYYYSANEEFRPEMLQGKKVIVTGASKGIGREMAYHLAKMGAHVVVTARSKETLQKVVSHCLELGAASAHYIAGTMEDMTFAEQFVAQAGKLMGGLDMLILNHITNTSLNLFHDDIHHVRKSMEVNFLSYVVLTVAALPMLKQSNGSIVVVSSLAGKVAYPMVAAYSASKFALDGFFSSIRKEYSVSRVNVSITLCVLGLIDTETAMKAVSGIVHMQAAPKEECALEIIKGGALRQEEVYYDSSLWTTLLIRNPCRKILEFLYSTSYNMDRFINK

Lab note: each compound below needs its IC50 filled in.
1. CCOc1ccccc1CNC(=O)N1CCC2(CC1)CC(CC(=O)O)c1cccc(Br)c12 (stereo not shown) [EXAMPLE 84]
2. O=C(/C=C/c1ccccc1C(F)(F)F)N1CCC2(CC1)CNCc1ccccc12 [EXAMPLE 21]
3. O=C(CCc1ccccc1C(F)(F)F)N1CCC2(CC1)CC(O)c1cccc(Br)c12 (stereo not shown) [EXAMPLE 64]
4. CCOC(=O)CC1CC2(CCN(C(=O)NCc3ccccc3C(F)(F)F)CC2)c2c(Br)cccc21 (stereo not shown) [EXAMPLE 92]
5. O=C(O)CC1CC2(CCN(C(=O)/C=C/c3cccc(Cl)c3Cl)CC2)c2c(Cl)cccc21 (racemic) [EXAMPLE 9]
6. O=C1NC2(CCN(C(=O)Cc3ccccc3C(F)(F)F)CC2)c2c(Cl)cc(Cl)cc21 [EXAMPLE 50]
7. O=C(O)CC1CC2(CCN(C(=O)/C=C/c3ccccc3C(F)(F)F)CC2)c2c(Br)cccc21 (racemic) [EXAMPLE 2]
8. Cc1ccc2c(c1)C(CC(=O)O)CC21CCN(C(=O)/C=C/c2ccccc2C(F)(F)F)CC1 (racemic) [EXAMPLE 12]

RESULT:
1. 0.1 to 1 µM
2. < 0.1 µM
3. < 0.1 µM
4. < 0.1 µM
5. < 0.1 µM
6. 0.1 to 1 µM
7. < 0.1 µM
8. < 0.1 µM
